Experiment: yeast display, Sf9 membrane polyspecificity reagent, FACS + sequencing; frameworks hold sequencing errors

SEQUENCE CONTENT	polyreactivity (PSR sort gate)
QVQLVESGGGLVQAGGSLRLSCAASGSIFYSYAMGWYRQAPGKERELVAAISWDASTYYADSVKGRFTISRDNAKNTVYLQMKSLKTEDTAVYYCNADIPYYFVFDAYDYWGQGTQVTVSS	low polyreactivity
QVQLVESGGGLVQAGGSLRLSCAASGSTFAFYAMGWYRQAPGTERELVAAIRSGGSTNYADSVKGRFTISRDNAKNTVYLQMNSLKPEDTAVYYCAARESDPGSHSVYREDDYWGQGTQVTVSS	low polyreactivity
QVQLVESRGGLVQAGGSLRLSCAASGRIFRYNAMGWDRQAPGKERELVAAITRSGGRTYYADSVKGRFTISRDNAKNTVYLQMNSLKPEDTAVYYCAADKYPSSPYVGDVDYWGQGTQVTVSS	high polyreactivity
QVQLVESGGGLVQAGGSLRLSCAASGLIFYHNAMRWYRQAPGKERELVAAMTASGGSTYYADSVKGRFTISRDNAKNTVYLQMNSLKPEDTAVYYCAADGPLDSDLDYWGQGTQVTVSS	low polyreactivity
QVQLVESGGGLVQAGGILRLSCAASGRTVHNYVMAWYRQAPWNERELVAAITAGVGSTYYADSVKGRFTISRDNAKNTVYFQMNSLKPEDTAVYYCAARKVWGYTYGYPYYYWGQGTQETVSS	high polyreactivity

---

Assay: yeast display, Sf9 membrane polyspecificity reagent, FACS + sequencing; frameworks hold sequencing errors
READOUT: polyreactivity (PSR sort gate)

SEQUENCE CONTENT	RESULT
QGQLVESGGGLVQAGGSLRLSCSASGLIFYRYTMGWYRQAPGKEREVVAAISSGGRTYSADSVKGRFTISRDNAKNTVYLQMNSLKPEDTAVYYCATRVYSVHAPSAVPIGGYYWGQGTQVTVSS	high polyreactivity
QVQLVESGGGLVQAGGSLRLSCAASGRTFTYYAMGWSRQAPGKERELVAGISSGGGSTYYADSVKGRFTISRDNAKNSVYFQMNILNPEDTAVYYCATAKRQGCYSEYDYWGQGTQVTVSS	high polyreactivity

---

Assay: yeast display, Sf9 membrane polyspecificity reagent, FACS + sequencing; frameworks hold sequencing errors

SEQUENCE CONTENT	polyreactivity (PSR sort gate)
QVQLVESGGGLDQAGGSLRLSCVASGFTFRVYAMGWYRQAPGKERELVAAISRVGSTNYADSVKGRFTISRDNAKNTVYLQMNSLKPEDTAVYYCNAVLRHTWVSRGYGSWGQGTQVTVSS	high polyreactivity
QVQLVESGGGLVQAGGSLRLSCAASGLTIDRNAMGWYRQAPGKERELVAAINWRGSRTYYADSVKGRFTISRDNAKNTVYLQMNSLKPEDTAVYYCAADWHTTYDYWGQVTQVTVSS	high polyreactivity
QVQLVESGGGLVQAGGSLRLSCAASGSIFFPYAMGWYRQAPGKERELVAAISWRGGITYYADSVKGRFTISRDNAKNTVYLQMNSLKPEDTAVYYCAADGPYTGDGALDYWGQGTQVTVSS	high polyreactivity

---

Assay: yeast display, Sf9 membrane polyspecificity reagent, FACS + sequencing; frameworks hold sequencing errors
READOUT: polyreactivity (PSR sort gate)

>>> df
                           sequence_content               result
0  QVQLVESGGGLVQAGGSLRLSCAASGRTFGLNAMGWYRQAPGKERELVAAISSSGGSTYYADSVKGRFTISRDNAKNTVYLQMNSLKPEDTAVYYCAKVLYRYGTAYYYWGQGTQVTVSS  high polyreactivity
1  QVQLVESGGGLVQAGGSLRLSCAASGSTFSLYAMGWYRQATGKERELVASIRGRGGSTNYADSVKGRFTISRDNAKNTVYLQMNSLKPEDTAVYYCAAAVGSVRYDYWGQGTQVTVSS  high polyreactivity
